# SYSTEM: T1, alpha subunit of the human FcεRI receptor (IgE high affinity receptor), expressed on Chinese hamster ovary … (human, UniProt P12319 26-257)
# T1 construct: whole, on cells; also called CHO FcεRI+ cells; FcεRIα
# T1 sequence (looked up): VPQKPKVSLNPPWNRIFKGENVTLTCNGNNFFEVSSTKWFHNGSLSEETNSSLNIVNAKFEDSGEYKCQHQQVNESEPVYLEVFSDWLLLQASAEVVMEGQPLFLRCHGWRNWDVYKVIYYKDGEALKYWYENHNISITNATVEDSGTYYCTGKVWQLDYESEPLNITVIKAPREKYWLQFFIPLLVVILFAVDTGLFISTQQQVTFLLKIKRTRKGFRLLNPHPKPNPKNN
# TEST_NAME: inhibition of 125I-IgE binding to CHO cells expressing human FcεRI alpha; competitor IgE
Where no end group is shown, it is not given here.
Provide the recorded pIC50 for the entries that follow.
Give bare numbers, as −log10 of the molar value.

Please review the entries below; each comes with its answer.
* VTCPRWCYVGGKALCPDVCYV-NH2 (cysteine pairing not given here) [IGE126] | 6.42
* VQCAHFCYVGGHALCPDVCYVGR (disulfide (positions not given here), produced as Z-domain fusion in E. coli and released with trypsin) [IGE142] | 6.00

Then there is this binder:
Quick note, pIC50 for VQCPDFCYELDYELCPDVCYV-NH2 (not fully specified (bridges); cysteine pairing not given here) [IGE190] landed at 7.24
